# credit: patent US12065445B2

Please respond with reported IC50 for every item in the list.
test system: Kuramochi cells labeled with mApple-H2B; experiment: IncuCyte Cell Proliferation Assay; format: cell-based; settings: 72 h

Return the recorded IC50 value; entry: `C[C@@H](OCC1CCOCC1)[C@@H](COC(F)(F)F)NC(=O)[C@@H]1CN(C(=O)c2cncs2)CC12CN(C(=O)[C@H]1CC1(C)C)C2`
> 20 µM

Return the recorded IC50 value; entry: CNC(=O)[C@@H](NC(=O)[C@H]1CN(C(=O)c2sc(C)nc2C)CC12CN(C(=O)[C@H]1CC1(C)C)C2)[C@@H](C)OCC1CCCCC1 [I-213B]
> 20 µM

Return the recorded IC50 value; entry: CC1(C)C[C@@H]1C(=O)N1CC2(CN(C(=O)c3cnn(Cc4ccccc4)c3)C[C@@H]2C(=O)NCc2nnc[nH]2)C1 [I-191B]
> 20 µM

* * *

tested on: Kuramochi cells labeled with mApple-H2B; assay: IncuCyte Cell Proliferation Assay; format: cell-based; settings: 72 h
Please respond with reported IC50 for every item in the list.

Return the recorded IC50 value; entry: `CNC(=O)[C@@H](NC(=O)[C@@H]1CN(C(=O)c2cnn(Cc3ccccc3)c2)CC12CN(C(=O)[C@H]1CC1(C)C)C2)[C@@H](C)OC[C@H]1CC[C@H](O)CC1`
> 20 µM

Return the recorded IC50 value; entry: CNC(=O)[C@@H](CO)NC(=O)C1CN(C(=O)c2cnn(Cc3ccccc3)c2)CC12CN(C(=O)[C@H]1CC1(C)C)C2 (stereo partly drawn)
> 20 µM

Return the recorded IC50 value; entry: `CNC(=O)[C@@H](NC(=O)[C@@H]1CN(C(=O)c2cnn(Cc3ccccc3)c2)CC12CN(C(=O)[C@H]1CC1(C)C)C2)[C@@H](C)SCc1ccccc1`
5 to 20 µM

Return the recorded IC50 value; entry: `CNC(=O)[C@@H](NC(=O)[C@@H]1CN(C(=O)c2cncs2)CC12CN(C(=O)[C@H]1CC1(C)C)C2)[C@@H](C)OC[C@H]1CC[C@@H](C)CC1`
≤ 0.5 µM

Return the recorded IC50 value; entry: COC[C@H]1CCCN(C(=O)[C@@H](NC(=O)[C@@H]2CN(C(=O)c3cncs3)CC23CN(C(=O)[C@H]2CC2(C)C)C3)[C@@H](C)OCC2CCCCC2)C1 [I-196A]
≤ 0.5 µM

Return the recorded IC50 value; entry: C[C@@H](OCC1CCCCC1)[C@H](NC(=O)[C@@H]1CN(C(=O)c2cn[nH]c2)CC12CN(C(=O)[C@H]1CC1(C)C)C2)C(=O)N1CCC(F)(F)CC1 [I-154A]
0.5 to 5 µM

Return the recorded IC50 value; entry: `CNC(=O)[C@@H](NC(=O)[C@@H]1CN(C(=O)c2cnn(Cc3ccccc3)c2)CC12CN(C(=O)[C@H]1CC1(C)C)C2)[C@@H](C)OC[C@H]1CC[C@@H](O)CC1`
> 20 µM

Return the recorded IC50 value; entry: `C[C@@H](OCC1CCC(F)(F)CC1)[C@H](NC(=O)[C@@H]1CN(C(=O)c2cncs2)CC12CN(C(=O)[C@H]1CC1(C)C)C2)C(=O)N1CCC(CO)CC1`
0.5 to 5 µM

Return the recorded IC50 value; entry: CNC(=O)[C@@H](NC(=O)C1(F)CN(C(=O)c2cnn(Cc3ccccc3)c2)CC12CN(C(=O)[C@H]1CC1(C)C)C2)[C@@H](C)OCC1CCCCC1 (stereo partly drawn)
0.5 to 5 µM

Return the recorded IC50 value; entry: `C[C@@H](OCC1CCC(F)(F)CC1)[C@@H](COC1CCOCC1)NC(=O)[C@@H]1CN(C(=O)c2cncs2)CC12CN(C(=O)[C@H]1CC1(C)C)C2`
≤ 0.5 µM

Return the recorded IC50 value; entry: `CC1(C)C[C@@H]1C(=O)N1CC2(CN(C(=O)c3cncs3)C[C@H]2C(=O)N[C@@H](COCC2CCCCC2)C(=O)N2CCCCC2)C1`
0.5 to 5 µM

Return the recorded IC50 value; entry: `C[C@@H](OCC1CCCCC1)[C@H](NC(=O)[C@@H]1CN(C(=O)c2cncs2)CC12CN(C(=O)[C@H]1CC1(C)C)C2)C(=O)N1CCC(c2cnc[nH]2)CC1`
0.5 to 5 µM

* * *

test system: Kuramochi cells labeled with mApple-H2B; assay: IncuCyte Cell Proliferation Assay; assay type: cell-based; settings: 72 h
pIC50: −log10 of the molar value.
assay metric: pIC50

Return the recorded pIC50 value; entry: C[C@@H](OCC1CCC(F)(F)CC1)[C@H](NC(=O)[C@@H]1CN(C(=O)c2cnn(Cc3ccc(F)cc3)c2)CC12CN(C(=O)[C@H]1CC1(C)C)C2)C(=O)N1CCC(F)(F)CC1 [I-164A]
≥ 6.30

Return the recorded pIC50 value; entry: C[C@@H](OCC1CCC(F)(F)CC1)[C@H](NC(=O)[C@@H]1CN(C(=O)c2cncs2)CC12CN(C(=O)[C@H]1CC1(C)C)C2)C(=O)N1CCC2(CC1)CC2 [I-380]
≥ 6.30

Return the recorded pIC50 value; entry: CNC(=O)C(NC(=O)[C@@H]1CN(C(=O)c2cnn(Cc3ccccc3)c2)CC12CN(C(=O)[C@H]1CC1(C)C)C2)c1ccc(C)nn1 (stereo partly drawn) [I-421]
< 4.70

* * *

Test system: Kuramochi cells labeled with mApple-H2B
Assay: IncuCyte Cell Proliferation Assay
Assay type: cell-based
Conditions: 72 h
Method: IncuCyte® assay was used to measure the effect of disclosed compounds on cell proliferation. Fluorescent microscopy images of cells were taken immediately after compound treatment and 72 hours later. Image analysis software was used to obtain cell counts as a function of compound concentration. Kuramochi cells labeled with mApple-H2B were seeded on 384-well assay-ready plates. […] The normalized cell counts were fit with dose response curves and a […] was calculated.
pIC50: −log10 of the molar value.
assay metric: pIC50

Please report the measured pIC50 for C[C@@H](OCC1CCCCC1)[C@H](NC(=O)C1CN(C(=O)c2cnn(Cc3ccccc3)c2)CC12CN(C(=O)[C@H]1CC1(C)C)C2)C(=O)N1CC(C)(C)C1 (stereo partly drawn) [I-153 mixture] tested on Kuramochi cells labeled with mApple-H2B.
≥ 6.30

Please report the measured pIC50 for `Cc1ccc(CNC(=O)[C@@H]2CN(C(=O)c3cnn(Cc4ccccc4)c3)CC23CN(C(=O)C(C)(C)C2CC2)C3)nn1` tested on Kuramochi cells labeled with mApple-H2B.
< 4.70

Please report the measured pIC50 for CC1(C)C[C@@H]1C(=O)N1CC2(CN(C(=O)c3cnn(Cc4ccccc4)c3)C[C@H]2C(=O)N[C@H]2C[C@@H]2c2cccc(Cl)c2)C1 [I-140A] tested on Kuramochi cells labeled with mApple-H2B.
4.70 to 5.30

* * *

tested on: Kuramochi cells labeled with mApple-H2B; assay: IncuCyte Cell Proliferation Assay; format: cell-based; settings: 72 h
assay metric: IC50

Return the recorded IC50 value; entry: `C[C@@H](OCC1CCC(F)(F)CC1)[C@H](NC(=O)[C@@H]1CN(C(=O)c2cncs2)CC12CN(C(=O)[C@H]1CC1(C)C)C2)C(=O)N1CCC[C@H](COC(F)(F)F)C1`
≤ 0.5 µM

Return the recorded IC50 value; entry: COC[C@H]1CCCN(C(=O)[C@@H](NC(=O)[C@@H]2CN(C(=O)c3cncs3)CC23CN(C(=O)C(C)(C)C2CC2)C3)[C@@H](C)OC(C)C2CCC(F)(F)CC2)C1 (some centres unmarked)
0.5 to 5 µM

Return the recorded IC50 value; entry: `COC[C@H]1CCCN(C(=O)[C@@H](NC(=O)[C@@H]2CN(C(=O)c3cncs3)CC23CN(C(=O)[C@H]2CC2(C)C)C3)[C@@H](C)OC[C@H]2CC[C@H](OC)CC2)C1`
0.5 to 5 µM

Return the recorded IC50 value; entry: CNC(=O)[C@@H](NC(=O)[C@@H]1CN(C(=O)c2sc(Cl)nc2C)CC12CN(C(=O)[C@H]1CC1(C)C)C2)[C@@H](C)OCC1CCCCC1 [I-208A]
≤ 0.5 µM

Return the recorded IC50 value; entry: `Cc1ccc(CNC(=O)[C@H]2CN(C(=O)c3cnn(Cc4ccccc4)c3)CC23CN(C(=O)[C@H]2CC2(C)C)C3)nn1`
> 20 µM

Return the recorded IC50 value; entry: `CNC(=O)[C@@H](NC(=O)[C@@H]1CN(C(=O)c2cnn(Cc3ccccc3)c2)CC12CN(C(=O)C(C)(C)C1CC1)C2)[C@@H](C)OCc1ccccc1`
> 20 µM

Return the recorded IC50 value; entry: `CNC(=O)[C@@H](NC(=O)[C@@H]1CN(C(=O)c2cnn(Cc3ccccc3)c2)CC12CN(C(=O)[C@H]1CC1(C)C)C2)[C@@H](C)OCC1CCC(C)(C)CC1`
≤ 0.5 µM

Return the recorded IC50 value; entry: CC(C)(O)C(NC(=O)[C@@H]1CN(C(=O)c2cnco2)CC12CN(C(=O)[C@H]1CC1(C)C)C2)c1cccc(C2CCOCC2)n1 (some centres unmarked)
> 20 µM

Return the recorded IC50 value; entry: `CC1(C)C[C@@H]1C(=O)N1CC2(CN(C(=O)c3cncs3)C[C@H]2C(=O)NCc2cccc(C3CCCCC3)n2)C1`
0.5 to 5 µM

Return the recorded IC50 value; entry: `Cc1ccc(CNC(=O)[C@@H]2CN(C(=O)c3cnn(Cc4ccncc4)c3)CC23CN(C(=O)[C@H]2CC2(C)C)C3)nn1`
> 20 µM

Return the recorded IC50 value; entry: CNC(=O)[C@@H](NC(=O)[C@H]1CN(C(=O)c2cnc(C)s2)CC12CN(C(=O)[C@H]1CC1(C)C)C2)[C@@H](C)OCC1CCCCC1 [I-156B]
> 20 µM

Return the recorded IC50 value; entry: Cc1ccc2[nH]c(CNC(=O)C3CN(C(=O)c4cnn(Cc5ccccc5)c4)CC34CN(C(=O)[C@H]3CC3(C)C)C4)nc2c1 (some centres unmarked)
> 20 µM

Return the recorded IC50 value; entry: C[C@@H](OCC1CCCCC1)[C@H](NC(=O)C1CN(C(=O)c2cnn(Cc3ccccc3)c2)CC12CN(C(=O)[C@H]1CC1(C)C)C2)C(=O)NCCC(=O)O (some centres unmarked)
5 to 20 µM

Return the recorded IC50 value; entry: CC1(C)C[C@@H]1C(=O)N1CC2(CN(C(=O)c3cnn(Cc4ccccc4)c3)C[C@@H]2C(=O)N[C@H]2CCc3cc(Cl)ccc32)C1 [I-133B]
> 20 µM

Return the recorded IC50 value; entry: `C[C@@H](OCC1(C(F)(F)F)CC1)[C@H](NC(=O)[C@H]1CN(C(=O)c2cncs2)CC12CN(C(=O)[C@H]1CC1(C)C)C2)C(=O)N1CCCCC1`
> 20 µM

Return the recorded IC50 value; entry: `Cc1nc(C)c(C(=O)N2C[C@@H](C(=O)N[C@H](C(=O)N3CCC(C(F)(F)F)CC3)[C@@H](C)OCC34CCC(CC3)OC4)C3(C2)CN(C(=O)[C@H]2CC2(C)C)C3)s1`
0.5 to 5 µM

Return the recorded IC50 value; entry: C[C@@H](OCC1CCCCC1)[C@H](NC(=O)C1CN(C(=O)c2cncs2)CC12CN(C(=O)[C@H]1CC1(C)C)C2)C(=O)N1CCC[C@@H](CO)C1 (some centres unmarked)
≤ 0.5 µM

Return the recorded IC50 value; entry: C[C@@H](OCC1CCCCC1)[C@H](NC(=O)C1CN(C(=O)c2cnn(Cc3ccccc3)c2)CC12CN(C(=O)[C@H]1CC1(C)C)C2)C(=O)N1CCC(F)(F)CC1 (some centres unmarked) [I-149 mixture]
≤ 0.5 µM

Return the recorded IC50 value; entry: CC(O[C@H](C)[C@H](NC(=O)[C@@H]1CN(C(=O)c2cncs2)CC12CN(C(=O)[C@H]1CC1(C)C)C2)C(=O)N1CCC(F)(F)CC1)C1CCC(F)(F)CC1 (some centres unmarked)
0.5 to 5 µM

Return the recorded IC50 value; entry: `CNC(=O)[C@@H](NC(=O)[C@@H]1CN(C(=O)c2cnn(Cc3ccccc3)c2)CC12CN(C(=O)N(C)C(C)C)C2)[C@@H](C)OCC1CCCCC1`
5 to 20 µM

Return the recorded IC50 value; entry: `COC[C@H]1CCCN(C(=O)[C@@H](NC(=O)[C@@H]2CN(C(=O)c3cncs3)CC23CN(C(=O)[C@H]2CC2(C)C)C3)[C@@H](C)OCc2ccc(Cl)cc2F)C1`
0.5 to 5 µM

Return the recorded IC50 value; entry: `CNC(=O)[C@@H](NC(=O)[C@@H]1CN(C(=O)c2cnn(Cc3ccccc3)c2)CC12CN(C(=O)[C@H]1CC1(C)C)C2)[C@@H](C)OCc1cccc(O)c1`
> 20 µM

Return the recorded IC50 value; entry: CNC(=O)[C@@H](NC(=O)[C@@H]1CN(C(=O)c2scnc2C(F)(F)F)CC12CN(C(=O)[C@H]1CC1(C)C)C2)[C@@H](C)OCC1CCCCC1 [I-163A]
> 20 µM
